Data provenance is patent US20250011363A1.

# target_under_test: acetylcholine receptor
# procedure_summary: SPR, peptide at 10 uM on immobilized AchR
endpoint_name: Binding affinity (RU)

binder	Binding affinity (RU)
RFADRR [6mer-2-1059]	35
RHMERK [6mer-2-1075]	31
RMPWKK [6mer-2-1058]	24
KIHWKK [6mer-2-1037]	26
KCNPRR [6mer-2-1022]	22

a. KENHRK [6mer-2-1026]
b. RAEFRR [6mer-2-1011]
Task: Would you kindly point out which of a and b has the smaller Binding affinity (RU) figure? Answer = label.
Output: b
(b: 22 RU, a: 33 RU)

P. RNSEKR [6mer-2-1046]
Q. KPPPRK [6mer-2-1050]
Task: Of the two listed items, which has the higher Binding affinity (RU)? First: P Second: Q Answer = label.
Output: P

A. KCNEKK [6mer-2-1079]
B. RNDERK [6mer-2-1056]
Task: Of the two listed items, which has the higher Binding affinity (RU)? First: A Second: B Answer = label.
Output: A
(A: 40 RU, B: 22 RU)
